- assayed target: IDH2 (R172K, 40-end) (Homo sapiens (Human), UniProt P48735, R172K)
- Sequence (P48735 40-452 R172K): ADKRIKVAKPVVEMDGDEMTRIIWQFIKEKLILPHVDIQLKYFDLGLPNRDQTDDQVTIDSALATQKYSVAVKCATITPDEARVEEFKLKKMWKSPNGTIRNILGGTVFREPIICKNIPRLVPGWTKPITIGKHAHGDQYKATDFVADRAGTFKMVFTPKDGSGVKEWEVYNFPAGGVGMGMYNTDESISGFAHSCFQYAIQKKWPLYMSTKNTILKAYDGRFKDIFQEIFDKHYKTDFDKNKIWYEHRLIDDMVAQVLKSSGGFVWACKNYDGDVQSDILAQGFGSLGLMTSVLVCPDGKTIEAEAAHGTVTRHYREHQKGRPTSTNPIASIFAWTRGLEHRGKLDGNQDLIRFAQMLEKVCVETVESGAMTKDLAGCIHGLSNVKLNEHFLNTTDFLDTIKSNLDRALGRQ
- assay summary: IDH2 inhibitory activity determined by decrease of NADPH (diaphorase/resazurin fluorescence)
- condition summary: 120 min pre-incubation with enzyme and NADPH, 120 min reaction with α-KG
property label: IC50 (nM)

chemical_string=CC(C)(C)ONc1nc(Nc2ccnc(C(F)(F)F)c2)nc(-c2ccccc2)n1 data_value=51.4
chemical_string=CC(C)(CO)ONc1nc(Nc2ccnc(C(F)(F)F)c2)nc(-c2cccc(C(F)(F)F)n2)n1 data_value=154
chemical_string=CC(C)(O)CONc1nc(Nc2ccnc(C(F)(F)F)c2)nc(-c2cccc(C(F)(F)F)n2)n1 data_value=46.9

* * *

- assay summary: Pharmacokinetic parameters in rats after a single intragastric dose
- Type: in vivo
- condition summary: rat, po; male rats, intragastric, single dose 5 mg/kg, plasma
property label: Tmax

compound="CC(C)(O)CNc1nc(Nc2ccnc(C(F)(F)F)c2)nc(-c2cccc(C(F)(F)F)n2)n1 [AG-221, reference compound]" property_label=Tmax data_value="4 h"
compound="CC(C)(C)ONc1nc(Nc2ccnc(C(F)(F)F)c2)nc(-c2cccc(C(F)(F)F)n2)n1 [Example 3]" property_label=Tmax data_value="5 h"

* * *

- assay summary: Pharmacokinetic parameters in rats after a single intragastric dose
- Assay type: in vivo
- condition summary: rat, po; male rats, intragastric, single dose 5 mg/kg, plasma
property label: Cmax

molecule="CC(C)(O)CNc1nc(Nc2ccnc(C(F)(F)F)c2)nc(-c2cccc(C(F)(F)F)n2)n1 [AG-221, reference compound]" data_value="479 ng/mL"
molecule=CC(C)(C)ONc1nc(Nc2ccnc(C(F)(F)F)c2)nc(-c2cccc(C(F)(F)F)n2)n1 data_value="589 ng/mL"

* * *

// pIC50 lookup, one value per entry
- assayed target: IDH2 (R172K, 40-end) (Homo sapiens (Human), UniProt P48735, R172K)
- assay summary: IDH2 inhibitory activity determined by decrease of NADPH (diaphorase/resazurin fluorescence)
- condition summary: 120 min pre-incubation with enzyme and NADPH, 120 min reaction with α-KG
pIC50: −log10 of the molar value.
property label: pIC50

compound="FC(F)(F)c1cc(Nc2nc(NOCc3ccccc3)nc(-c3cccc(C(F)(F)F)n3)n2)ccn1 [Example 8]" data_value=6.62
compound="FC(F)(F)c1cc(Nc2nc(NOCC3CC3)nc(-c3cccc(C(F)(F)F)n3)n2)ccn1 [Example 4]" data_value=7.42
compound="CCONc1nc(Nc2ccnc(C(F)(F)F)c2)nc(-c2cccc(C(F)(F)F)n2)n1 [Example 1]" data_value=7.65
compound="CC(C)(C)ONc1nc(Nc2ccnc(C(F)(F)F)c2)nc(-c2cccc(C(F)(F)F)n2)n1 [Example 3]" data_value=7.50

Each recorded value in this set is attributed to patent US10745383B2.
